Target: T1, Human PDGF-BB (human, UniProt P01127 82-190)
T1 construct: Dimer of two B chains; also called hPDGF-BB; huPDGF-BB
T1 sequence (P01127 82-190 limits assumed): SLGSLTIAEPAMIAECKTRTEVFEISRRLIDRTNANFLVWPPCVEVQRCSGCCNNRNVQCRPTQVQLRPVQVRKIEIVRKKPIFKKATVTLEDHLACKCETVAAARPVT
Experiment: Biacore SPR, antibody captured by anti-human Fc, PDGF-BB as analyte
Below, each entry is listed alongside its reported pKd.
Expect pKd as a plain number equal to -log10 of the molar concentration.

binder: CL-33706-IgG (antibody, V domains shown) VH: EVTLRESGPALVKPTQTLTLTCTFSGFSLSTYGMGVGWIRQPPGKALEWLANIWWDDDKYYNPSLKNRLTISKDTSKNQVVLTMTNMDPVDTATYYCARIETMGPKYSFDYWGQGTMVTVSS VL: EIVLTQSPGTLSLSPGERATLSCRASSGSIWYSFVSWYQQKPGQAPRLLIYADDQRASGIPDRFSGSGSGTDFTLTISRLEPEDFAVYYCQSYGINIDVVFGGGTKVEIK
pKd: 12.16

binder: CL-33811-IgG (antibody, V domains shown) VH: EVTLRESGPALVKPTQTLTLTCTFSGFSLSTYGMGVGWIRQPPGKALEWLANIWWDDDKYYNPSLKNRLTISKDTSKNQVVLTMTNMDPVDTATYYCARIESSWTTYSFDYWGQGTMVTVSS VL: EIVLTQSPGTLSLSPGERATLSCERSSGSIWHSYVSWYQQKPGQAPRLLIYSDDQRATGIPDRFSGSGSGTDFTLTISRLEPEDFAVYYCQSYGIYIDVVFGGGTKVEIK
pKd: 12.35

# pKd of CL-33675-IgG (antibody, V domains shown) VH: EVTLRESGPALVKPTQTLTLTCTFSGFSLSTYGMGVGWIRQPPGKALEWLANIWWDDDKYYNPSLKNRLTISKDTSKNQVVLTMTNMDPVDTATYYCARIESSGPKYSFDYWGQGTMVTVSS VL: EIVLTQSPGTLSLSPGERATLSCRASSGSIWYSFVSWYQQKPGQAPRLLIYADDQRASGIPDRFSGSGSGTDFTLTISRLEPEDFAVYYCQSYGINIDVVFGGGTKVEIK = 12.21

# pKd of CL-33812-IgG (antibody, V domains shown) VH: EVTLRESGPALVKPTQTLTLTCTFSGFSLSTYGMGVGWIRQPPGKALEWLANIWWDDDKYYNPSLKNRLTISKDTSKNQVVLTMTNMDPVDTATYYCARIESNPWKYSFDYWGQGTMVTVSS VL: EIVLTQSPGTLSLSPGERATLSCERSSGDIWQSYVSWYQQKPGQAPRLVIYSDDQRASGIPDRFSGSGSGTDFTLTISRLEPEDFAVYYCQSYGINIDVVFGGGTKVEIK = 12.52
